STUDY SYSTEM: human ΔF508-CFTR (Homo sapiens, UniProt P13569, DEL508-508)
Sequence (P13569 with tags, fused parts or gaps DEL508-508): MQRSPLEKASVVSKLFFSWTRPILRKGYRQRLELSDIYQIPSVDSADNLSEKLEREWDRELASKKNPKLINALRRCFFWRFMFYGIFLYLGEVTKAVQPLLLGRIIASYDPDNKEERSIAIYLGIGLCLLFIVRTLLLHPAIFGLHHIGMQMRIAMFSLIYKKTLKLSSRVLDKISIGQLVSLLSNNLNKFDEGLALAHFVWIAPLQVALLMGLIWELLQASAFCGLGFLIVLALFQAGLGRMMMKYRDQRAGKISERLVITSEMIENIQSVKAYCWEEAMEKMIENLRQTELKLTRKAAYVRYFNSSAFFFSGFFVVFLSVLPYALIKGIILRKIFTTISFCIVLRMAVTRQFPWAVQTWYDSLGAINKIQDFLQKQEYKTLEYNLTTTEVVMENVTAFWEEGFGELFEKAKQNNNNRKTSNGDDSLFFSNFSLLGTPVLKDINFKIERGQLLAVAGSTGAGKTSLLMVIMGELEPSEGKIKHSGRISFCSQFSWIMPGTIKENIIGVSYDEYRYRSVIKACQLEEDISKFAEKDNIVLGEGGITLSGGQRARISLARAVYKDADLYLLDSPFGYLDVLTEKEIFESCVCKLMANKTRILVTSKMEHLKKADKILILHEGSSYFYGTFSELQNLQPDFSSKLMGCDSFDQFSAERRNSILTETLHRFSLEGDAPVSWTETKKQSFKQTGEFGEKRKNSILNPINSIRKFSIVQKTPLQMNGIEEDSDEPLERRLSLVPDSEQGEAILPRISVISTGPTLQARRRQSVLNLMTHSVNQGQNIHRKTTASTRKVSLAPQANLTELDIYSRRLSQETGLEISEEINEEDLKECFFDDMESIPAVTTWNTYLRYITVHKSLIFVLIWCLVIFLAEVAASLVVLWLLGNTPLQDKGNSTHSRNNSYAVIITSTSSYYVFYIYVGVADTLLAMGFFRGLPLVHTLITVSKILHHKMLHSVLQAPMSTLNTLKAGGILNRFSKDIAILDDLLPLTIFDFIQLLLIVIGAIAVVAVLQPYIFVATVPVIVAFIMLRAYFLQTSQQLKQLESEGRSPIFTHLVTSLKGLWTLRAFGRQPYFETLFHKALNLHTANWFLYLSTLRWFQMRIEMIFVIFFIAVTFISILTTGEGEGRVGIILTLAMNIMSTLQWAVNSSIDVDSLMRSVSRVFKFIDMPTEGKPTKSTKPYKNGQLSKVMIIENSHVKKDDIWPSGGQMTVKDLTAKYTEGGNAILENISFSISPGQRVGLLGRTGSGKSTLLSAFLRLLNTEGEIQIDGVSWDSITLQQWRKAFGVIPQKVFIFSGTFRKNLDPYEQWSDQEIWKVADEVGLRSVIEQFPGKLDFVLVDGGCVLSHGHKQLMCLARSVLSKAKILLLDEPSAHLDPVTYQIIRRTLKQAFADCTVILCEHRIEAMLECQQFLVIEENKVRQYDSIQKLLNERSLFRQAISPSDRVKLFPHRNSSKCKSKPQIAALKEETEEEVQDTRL
TEST PROTOCOL: CFTR-YFP High Throughput Assay (YFP halide flux in FRT cells)
CONDITION INFO: FRT cells expressing human ΔF508-CFTR and YFP; forskolin stimulated
pEC50: −log10 of the molar value.
The entries below are paired with their reported pEC50.

Recorded results for 2 compounds are shown here.
CCc1ccc(N(CC)C(=O)Cn2nc(Cc3cccnc3)c3ccc(Cl)cc3c2=O)cc1 = > 5.00
CCN(C(=O)Cn1ncc2c(c1=O)c1ccccc1n2CCOC)c1ccc2c(c1)OC(F)(F)O2 = > 5.00

Field: next compound
Provide only the value of recorded pEC50 for CCN(C(=O)c1nn(-c2ccccc2)c(=O)c2c1c1ccccc1n2C)c1ncccn1
< 4.70

From: patent US9790215B2
